Assay: PK study: plasma and brain levels in mice
Assay type: in vivo
Conditions: mouse, brain; male C57BL/6 mice, 50 mg/kg oral, 4 hr post dosing; read-out: Brain (ng/g) 4 hr
measurement-name: concentration at 4 h (ng/g)
Express it in ng/g; write the number only.

Note to self: concentration at 4 h recorded for COCCNC(=O)c1ccc2c(c1)nc(Nc1nc3ccc(OCCOC)cc3o1)n2C [Example 56] was 122

---

Measured log10 of solubility at 16 h of individual entries
Assay: Kinetic solubility
Assay type: physicochemical
Conditions: Dulbecco's phosphate buffer saline (DPBS), aqueous buffer, kinetic from dmso stock, DPBS pH 7.4, 25° C., 200 μM test compound
Protocol: Example 144. Kinetic Solubility 10 μL of 10 mM DMSO stock solution were aliquotted to 490 μL of DMSO solution and separately 490 μL of Dulbecco's phosphate buffer saline, DPBS, pH 7.4 solution in 1.2 mL 96-well plates in duplicate. Final concentration was 200 μM of the test compound. Samples were incubated at 25° C. with shaking at 200 rpm for 16 h. […] Kinetic solubility was measured using the following equation: […]
Recall that a logarithmic scale is used here: each number is log10 of solubility at 16 h in µM.

Solved cases below.
COCCNC(=O)c1ccc2c(c1)nc(Nc1nc3cc(OC(F)(F)F)ccc3[nH]1)n2C [Example 14]: 0.62
COCCONC(=O)c1ccc2c(c1)nc(Nc1nc3ccc(C(C)=O)cc3o1)n2C [Example 132]: 0.49

Note to self: log10 of solubility at 16 h recorded for Cn1c(Nc2nc3ccccc3o2)nc2cc(C(=O)NCC3(O)COC3)ccc21 [Example 26] was 0.93

Note to self: log10 of solubility at 16 h recorded for Cn1c(Nc2nc3cccnc3o2)nc2cc(C(=O)NCCO)ccc21 [Example 110] was 1.28

Note to self: log10 of solubility at 16 h recorded for COCCOc1ccc2nc(Nc3nc4cc(C(=O)NOCCO)ccc4n3C)oc2c1 [Example 128] was 0.67

Note to self: log10 of solubility at 16 h recorded for Cn1c(Nc2nc3ccc(C(F)(F)F)cc3o2)nc2cc(C(=O)NCCOCC(=O)O)ccc21 [Example 41] was 1.14

Note to self: log10 of solubility at 16 h recorded for CC(C)c1ccc2nc(Nc3nc4cc(C(=O)NCCO)ccc4n3C)oc2c1 [Example 61] was 0.08

---

Assay: Kinetic solubility
Format: physicochemical
Details: Dulbecco's phosphate buffer saline (DPBS), aqueous buffer, kinetic from dmso stock, DPBS pH 7.4, 25° C., 200 μM test compound
Please note: fulfilled applies when solubility at 16 h is 10 µM or greater, and not fulfilled applies otherwise.

Please review the entries below; each comes with its answer.
Cn1c(Nc2nc3ccc(Br)cc3o2)nc2cc(C(=O)O)ccc21 [Example 91]: not fulfilled
Cn1c(Nc2nc3nccnc3s2)nc2cc(C(=O)NCCOCCO)ccc21 [Example 114]: fulfilled
Cn1c(Nc2nc3ccc(OCCO)cc3o2)nc2cc(C(=O)NOCCO)ccc21 [Example 129]: fulfilled
Cn1c(Nc2nc3ccc(OC(F)(F)F)cc3o2)nc2cc(C(=O)NC(CO)(CO)CO)ccc21 [Example 47]: not fulfilled
CN(C)CC(=O)NCCONC(=O)c1ccc2c(c1)nc(Nc1nc3ccccc3o1)n2C [Example 121]: not fulfilled
CC(=O)N1CCc2nc(Nc3nc4cc(C(=O)NCCOCCO)ccc4n3C)sc2C1 [Example 10]: not fulfilled

Q) Form field: solubility at 16 h at least 10 µM? Entry: COCCNC(=O)c1ccc2c(c1)nc(Nc1nc3ccc(OCCOC)cc3o1)n2C [Example 56]
A) not fulfilled

Q) Form field: solubility at 16 h at least 10 µM? Entry: Cn1c(Nc2nc3ccccc3o2)nc2cc(C(=O)NCC(O)CO)ccc21 (stereo not drawn) [Example 24]
A) fulfilled

Q) Form field: solubility at 16 h at least 10 µM? Entry: Cn1c(Nc2nc3ccc(C(C)(C)O)cc3o2)nc2cc(C(=O)NCCO)ccc21 [Example 133]
A) not fulfilled
